B1: MFF (parent)
chain: MAEISRIQYEMEYTEGISQRMRVP

variants of: B1; assay: protein stability index of a GFP-peptide fusion (GPS, HEK-293T) (PSI 1-6); higher = more stable; conditions: c terminus: a fixed tail appended;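 also: lentivirally expressed fusions sorted by FACS into six bins by GFP to DsRed ratio, PSI derived from sequencing read proportions per bin multiplied by bin number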
If the reported protein stability index equals or exceeds 3, assign 1. If not, assign 0.

MAEHSRIQYEMEYTEGISQRMRVP: 1
MMEISRIQYEMEYTEGISQRMRVP: 0
MAEISRIQYEMEYTEGISQRMRVN: 0
MAEISRIQYSMEYTEGISQRMRVP: 0
MAEISRIQYEMEYTEGISQRMEVP: 0

Inquiry: Exam item: decide whether the reported protein stability index for "MAEISRIQYEMEYTKGISQRMRVP" is at least 3.
Reply text: 0

Inquiry: Now consider "MAIISRIQYEMEYTEGISQRMRVP" .
Reply text: 0

Inquiry: Follow-up item: "MAEISRIQYEMEYTEGISQRMLVP"
Reply text: 0

Inquiry: Repeat with "MAEISEIQYEMEYTEGISQRMRVP"
Reply text: 1

Inquiry: Cool, now "DAEISRIQYEMEYTEGISQRMRVP"
Reply text: 1

Inquiry: Also "MAEISRKQYEMEYTEGISQRMRVP" ?
Reply text: 1

Inquiry: Now give it for "MAEISRIQYEMEYTEFISQRMRVP" too.
Reply text: 0

Inquiry: And the next one, "MAVISRIQYEMEYTEGISQRMRVP" ?
Reply text: 0
